All values here come from ChEMBL document CHEMBL3608268.

System: Liver microsome
Assay Notes: Half life in Wistar rat liver microsomes in presence of NADPH generation system by HPLC method
Type: ADME
Measured t1/2, listed per entry.
Write the answer as a number in min, unit excluded.

Q) Fill in the blank: the reported t1/2 of COc1cc(NC(=O)c2ccccn2)ccc1Cl is ____.
A) 4.9

Further cases:
Q) Fill blank: measured t1/2 of the compound Cc1ccnc(Nc2nc(-c3cn[nH]c3)c(C)s2)n1 is ____.
A) 7

Q) Which t1/2 is listed for O=C(Nc1cccc(OC(F)F)c1)c1ccccn1 ?
A) 5.2

Q) Requested read-out: t1/2. Entry: [2H]C([2H])(F)Oc1cc(NC(=O)c2ccccn2)ccc1Cl
A) 7.4

Q) Any idea what t1/2 was measured for O=C(Nc1ccc(Cl)c(OCF)c1)c1ccccn1 ?
A) 5.8

====

Measured Target: Metabotropic glutamate receptor 1 (Homo sapiens)
Sequence (Q13255 whole entry): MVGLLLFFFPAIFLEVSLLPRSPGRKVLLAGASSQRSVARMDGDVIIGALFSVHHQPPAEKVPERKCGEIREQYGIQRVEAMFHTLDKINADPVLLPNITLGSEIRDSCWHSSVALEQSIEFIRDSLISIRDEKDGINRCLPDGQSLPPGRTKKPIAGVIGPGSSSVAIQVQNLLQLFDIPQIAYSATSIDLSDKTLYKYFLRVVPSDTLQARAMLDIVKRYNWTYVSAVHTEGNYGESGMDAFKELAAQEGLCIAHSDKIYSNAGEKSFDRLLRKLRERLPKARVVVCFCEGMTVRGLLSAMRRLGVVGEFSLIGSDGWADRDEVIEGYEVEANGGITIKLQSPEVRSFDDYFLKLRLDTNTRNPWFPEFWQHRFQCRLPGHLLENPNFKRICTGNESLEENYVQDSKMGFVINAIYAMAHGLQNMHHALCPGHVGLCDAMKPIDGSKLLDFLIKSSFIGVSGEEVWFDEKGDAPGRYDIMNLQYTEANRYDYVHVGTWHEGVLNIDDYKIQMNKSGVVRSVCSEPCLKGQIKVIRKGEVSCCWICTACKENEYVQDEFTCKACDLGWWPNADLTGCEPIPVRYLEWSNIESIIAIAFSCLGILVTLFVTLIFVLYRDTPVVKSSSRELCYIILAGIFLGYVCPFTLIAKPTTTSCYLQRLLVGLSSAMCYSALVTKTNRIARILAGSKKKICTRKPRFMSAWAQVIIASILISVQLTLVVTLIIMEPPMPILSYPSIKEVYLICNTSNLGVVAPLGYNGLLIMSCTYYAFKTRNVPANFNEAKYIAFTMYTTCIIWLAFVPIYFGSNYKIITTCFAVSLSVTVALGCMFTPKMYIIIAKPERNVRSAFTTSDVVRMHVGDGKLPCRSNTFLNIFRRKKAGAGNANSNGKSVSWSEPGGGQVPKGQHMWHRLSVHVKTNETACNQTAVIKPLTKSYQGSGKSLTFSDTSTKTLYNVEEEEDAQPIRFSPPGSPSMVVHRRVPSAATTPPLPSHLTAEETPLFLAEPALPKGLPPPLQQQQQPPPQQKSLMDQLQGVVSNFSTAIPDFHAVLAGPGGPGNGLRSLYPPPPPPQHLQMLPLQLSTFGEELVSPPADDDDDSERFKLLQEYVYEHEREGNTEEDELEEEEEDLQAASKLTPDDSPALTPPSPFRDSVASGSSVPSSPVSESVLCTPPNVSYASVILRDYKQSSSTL
Assay Notes: Activity at mGlu1 receptor (unknown origin) expressed in HEK293 cells by Ca2+ mobilization assay
pIC50: −log10 of the molar value.
Observed Property: pIC50

Q) I'd like to know its pIC50. The compound in question is [2H]C([2H])(F)Oc1cc(NC(=O)c2ccccn2)ccc1Cl
A) < 4.52

====

Listed here are molecules together with their documented pIC50.
Measured Target: Metabotropic glutamate receptor 4 (Homo sapiens)
Sequence (Q14833 whole entry): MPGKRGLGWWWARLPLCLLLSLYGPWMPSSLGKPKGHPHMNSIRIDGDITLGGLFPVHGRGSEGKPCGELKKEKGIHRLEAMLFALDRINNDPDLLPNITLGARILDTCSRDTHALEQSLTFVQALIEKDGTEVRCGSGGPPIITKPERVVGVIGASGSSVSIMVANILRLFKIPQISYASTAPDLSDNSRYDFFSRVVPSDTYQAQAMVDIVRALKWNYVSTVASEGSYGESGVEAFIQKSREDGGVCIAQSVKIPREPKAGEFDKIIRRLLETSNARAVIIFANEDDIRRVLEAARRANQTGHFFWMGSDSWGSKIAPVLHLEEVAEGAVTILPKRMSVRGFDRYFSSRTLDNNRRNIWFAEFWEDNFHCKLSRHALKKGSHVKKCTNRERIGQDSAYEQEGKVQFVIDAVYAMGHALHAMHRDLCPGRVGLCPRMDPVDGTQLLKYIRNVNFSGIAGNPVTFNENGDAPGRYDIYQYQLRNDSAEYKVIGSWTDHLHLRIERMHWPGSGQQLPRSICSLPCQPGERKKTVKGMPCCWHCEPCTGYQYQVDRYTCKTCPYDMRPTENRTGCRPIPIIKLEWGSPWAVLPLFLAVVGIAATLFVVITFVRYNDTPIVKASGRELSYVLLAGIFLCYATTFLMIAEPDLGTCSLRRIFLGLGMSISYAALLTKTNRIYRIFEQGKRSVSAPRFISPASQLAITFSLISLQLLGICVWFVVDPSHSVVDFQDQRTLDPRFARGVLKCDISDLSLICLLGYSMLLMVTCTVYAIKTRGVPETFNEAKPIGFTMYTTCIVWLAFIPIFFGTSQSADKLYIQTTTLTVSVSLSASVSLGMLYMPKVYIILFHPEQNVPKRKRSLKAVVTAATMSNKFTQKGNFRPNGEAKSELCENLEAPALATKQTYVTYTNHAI
Assay Notes: Displacement of [3H]N-(4-chloro-3-methoxyphenyl)picolinamide from human mGlu4 receptor expressed in CHO cell membranes incubated for 30 mins by liquid scintillation counting method
Scale note: pIC50 = -log10(concentration in M).

Q) Lab note: need pIC50 for COc1cc(NC(=O)c2cccc(F)n2)ccc1Cl on Metabotropic glutamate receptor 4 (Homo sapiens), anyone have it?
A) 8.14

Q) Any idea what pIC50 came out for N#Cc1cccc(NC(=O)c2ccccn2)c1 on Metabotropic glutamate receptor 4 (Homo sapiens)?
A) 7.98

# next molecule below
Q) Form field - read-out: pIC50; system: Metabotropic glutamate receptor 4 (Homo sapiens); submitted item: N#Cc1cc(NC(=O)c2ccccn2)ccc1F
A) 8.13
